# Test system: SK-MEL-3 tumor cells
# run-description: Cell growth inhibition assay (CellTiter-Glo), SK-MEL-3
# Type: cell-based, Human
# conditions-used: Homo sapiens, SK-MEL3
pIC50: −log10 of the molar value.
Listed here: items and their measured pIC50.

These recorded examples may help you get a feel for the data.
{"columns": ["compound", "recorded-endpoint", "observed-value"],
 "data": [
  ["CCNc1nc(-c2cccc(NS(=O)(=O)c3ccccc3)c2)c(-c2ccnc(Nc3ccc(OCCN4CCCC4)c(F)c3)n2)s1", "pIC50", "6.00 to 7.00"],
  ["CC(C)c1nc(-c2cc(F)c(F)c(NS(=O)(=O)c3cccc(F)c3)c2)c(-c2ccnc(Nc3ccc(N4CCN(CCF)CC4)c(F)c3)n2)s1", "pIC50", "6.00 to 7.00"],
  ["CCc1nc(-c2cccc(NS(=O)(=O)c3ccccc3)c2)c(-c2ccnc(Nc3ccc(N4CCN(C(C)=O)CC4)nc3)n2)s1", "pIC50", "> 7.00"],
  ["CC(C)c1nc(-c2cc(F)cc(NS(=O)(=O)c3c(F)cccc3F)c2)c(-c2ccnc(Nc3ccc(N4CCOCC4)c(F)c3)n2)s1", "pIC50", "> 7.00"]
]}

Any idea what pIC50 came out for CC(=O)N1CCN(c2ccc(Nc3nccc(-c4sc(C(C)C)nc4-c4cccc(NS(=O)(=O)c5ccc(F)cc5)c4)n3)cn2)CC1 on SK-MEL-3 tumor cells?
6.00 to 7.00

----------
# target: B-Raf (Homo sapiens, UniProt P15056)
# Sequence (P15056 whole entry): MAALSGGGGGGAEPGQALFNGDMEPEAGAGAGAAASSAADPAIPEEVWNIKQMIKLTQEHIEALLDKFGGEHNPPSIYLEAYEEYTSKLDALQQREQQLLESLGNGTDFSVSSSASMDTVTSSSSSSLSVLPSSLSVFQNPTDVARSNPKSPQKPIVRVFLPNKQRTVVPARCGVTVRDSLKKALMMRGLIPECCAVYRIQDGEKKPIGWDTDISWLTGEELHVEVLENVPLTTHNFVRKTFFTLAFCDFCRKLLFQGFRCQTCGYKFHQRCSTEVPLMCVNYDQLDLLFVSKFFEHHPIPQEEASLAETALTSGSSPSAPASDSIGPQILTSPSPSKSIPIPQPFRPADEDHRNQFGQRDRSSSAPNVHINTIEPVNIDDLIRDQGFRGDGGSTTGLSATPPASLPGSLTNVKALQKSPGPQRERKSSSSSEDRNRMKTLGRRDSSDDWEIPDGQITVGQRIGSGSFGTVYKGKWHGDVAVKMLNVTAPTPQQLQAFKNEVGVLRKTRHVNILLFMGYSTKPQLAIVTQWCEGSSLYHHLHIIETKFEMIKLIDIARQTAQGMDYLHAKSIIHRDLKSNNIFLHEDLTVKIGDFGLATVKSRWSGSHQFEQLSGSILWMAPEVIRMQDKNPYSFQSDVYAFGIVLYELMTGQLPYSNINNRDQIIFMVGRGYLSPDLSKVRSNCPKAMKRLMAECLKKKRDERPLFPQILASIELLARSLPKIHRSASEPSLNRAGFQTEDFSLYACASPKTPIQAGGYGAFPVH
# run-description: B-Raf Accelerated MEK ATPase assay (BRAMA), Method A or B
# Format: biochemical
# conditions-used: Method B: final MEK 150 nM, single end point read
pIC50: −log10 of the molar value.
Listed here: items and their measured pIC50.

{"columns": ["chemical-string", "pIC50"],
 "data": [
  ["COc1cc(N2CCN(CCS(C)(=O)=O)CC2)c(C)cc1Nc1nccc(-c2sc(C3CCOCC3)nc2-c2cccc(NS(=O)(=O)c3c(F)cccc3F)c2F)n1", "> 7.00"]
]}

What value of measured pIC50 is listed for COc1cc(N2CCN(CCS(C)(=O)=O)CC2)c(C)cc1Nc1nccc(-c2sc(C)nc2-c2cccc(NS(=O)(=O)c3c(F)cccc3F)c2)n1 ?
6.00 to 7.00

Try this compound next: CC(=O)N1CCN(c2ccc(Nc3nccc(-c4sc(C(C)C)nc4-c4cccc(NS(=O)(=O)c5cc(F)ccc5F)c4)n3)cn2)CC1
> 7.00

Try this compound next: CC(C)c1nc(-c2cccc(NS(=O)(=O)c3c(F)cccc3F)c2)c(-c2ccnc(Nc3cccc(N4CCN(C)CC4)c3)n2)s1
> 7.00

Try this compound next: O=S(=O)(Nc1cccc(-c2nc(-c3ccc(F)c(Cl)c3)sc2-c2ccnc(Nc3ccc(N4CCOCC4)nc3)n2)c1F)c1c(F)cccc1F
> 7.00

Try this compound next: CC(C)(F)c1nc(-c2ccc(F)c(NS(=O)(=O)c3c(F)cccc3F)c2)c(-c2ccnc(Nc3ccc(N4CCOCC4)nc3)n2)s1
6.00 to 7.00

----------
# target: B-Raf (Homo sapiens)
# run-description: B-Raf Accelerated MEK ATPase assay (BRAMA), Method A or B
# Type: biochemical
# conditions-used: Method B: final MEK 150 nM, single end point read
pIC50: −log10 of the molar value.
Listed here: items and their measured pIC50.

These recorded examples may help you get a feel for the data.
{"columns": ["compound", "observed-value"],
 "data": [
  ["O=S(=O)(Nc1cccc(-c2nc(N3CCCC3)sc2-c2ccnc(Nc3ccc(N4CCN(CCF)CC4)c(F)c3)n2)c1)c1c(F)cccc1F [Example 21]", "> 7.00"],
  ["CC(C)c1nc(-c2cccc(NS(=O)(=O)C3CCCCC3)c2)c(-c2ccnc(Nc3ccc(N4CCOCC4)c(F)c3)n2)s1 [Example 38]", "6.00 to 7.00"]
]}

Any idea what pIC50 came out for CC(=O)N1CCN(c2ccc(Nc3nccc(-c4sc(C(C)C)nc4-c4cccc(NS(=O)(=O)c5cccc(C(F)(F)F)c5)c4)n3)cn2)CC1 [Example 70] on B-Raf (Homo sapiens)?
6.00 to 7.00

----------
# System: SK-MEL-3 tumor cells
# run-description: Cell growth inhibition assay (CellTiter-Glo), SK-MEL-3
# Assay type: cell-based, Human
# conditions-used: Homo sapiens, SK-MEL3
pIC50: −log10 of the molar value.
recorded-endpoint: pIC50

These recorded examples may help you get a feel for the data.
{"columns": ["compound", "pIC50"],
 "data": [
  ["CC(=O)N1CCN(c2ccc(Nc3nccc(-c4sc(C(C)C)nc4-c4cccc(NS(=O)(=O)c5cc(F)ccc5F)c4)n3)cn2)CC1 [Example 96]", "> 7.00"],
  ["CC(C)c1nc(-c2ccc(F)c(NS(=O)(=O)c3c(F)cccc3F)c2)c(-c2ccnc(Nc3ccnc(N4CCOCC4)c3)n2)s1 [Example 117]", "6.00 to 7.00"],
  ["CCOc1ccc(Nc2nccc(-c3sc(C(C)C)nc3-c3ccc(F)c(NS(=O)(=O)c4c(F)cccc4F)c3)n2)cc1N1CCN(CCF)CC1 [Example 98]", "6.00 to 7.00"]
]}

Now, please, on to the next compound.
What value of measured pIC50 is listed for CC(C)c1nc(-c2cccc(NS(=O)(=O)c3ccccc3)c2)c(-c2ccnc(Nc3ccc(F)c(N4CCN(CCS(C)(=O)=O)CC4)c3)n2)s1 [Example 73] ?
> 7.00

----------
Listed here: items and their measured pIC50.
# target: B-Raf (Homo sapiens)
# run-description: B-Raf Accelerated MEK ATPase assay (BRAMA), Method A or B
# Type: biochemical
# conditions-used: Method B: final MEK 150 nM, single end point read
# Method: Compounds of the present invention were tested for B-Raf protein serine kinase inhibitory activity in a B-Raf Accelerated MEK ATPase assay (BRAMA). […] Method A: Specific details of the assay are disclosed in: C. […] Method B: The method is the same as method A, but includes the following changes: 1) the assay was performed with a final MEK concentration of 150 nM and 2) the assay was read as single end point instead of a kinetic read.
pIC50: −log10 of the molar value.

{"columns": ["chemical-string", "observed-value"],
 "data": [
  ["COc1cc(N2CCN(CCS(C)(=O)=O)CC2)c(C)cc1Nc1nccc(-c2sc(C(C)(C)C)nc2-c2cccc(NS(=O)(=O)c3c(F)cccc3F)c2)n1", "> 7.00"],
  ["CC(C)c1nc(-c2cccc(NS(=O)(=O)c3c(F)cccc3F)c2F)c(-c2ccnc(Nc3ccc(N4CCN(CCF)CC4)c(F)c3)n2)s1", "> 7.00"],
  ["CC(C)c1nc(-c2cccc(NS(=O)(=O)Cc3ccccc3)c2)c(-c2ccnc(Nc3ccc(N4CCOCC4)c(F)c3)n2)s1", "6.00 to 7.00"]
]}

What value of measured pIC50 is listed for COc1ccc(Nc2nccc(-c3sc(C(C)C)nc3-c3cccc(NS(=O)(=O)c4ccccc4)c3)n2)cc1N1CCN(CCC#N)CC1 ?
> 7.00

Try this molecule next: COc1ccc(S(=O)(=O)Nc2cccc(-c3nc(C(C)C)sc3-c3ccnc(Nc4ccc(N5CCOCC5)nc4)n3)c2)cc1OC
6.00 to 7.00

Try this molecule next: Cc1nc(Cl)sc1S(=O)(=O)Nc1cccc(-c2nc(C(C)C)sc2-c2ccnc(Nc3ccc(N4CCOCC4)nc3)n2)c1
> 7.00

----------
# Tested on: A375P F11s tumor cells
# run-description: Cell growth inhibition assay (CellTiter-Glo), A375P F11s
# Format: cell-based, Human
# conditions-used: Homo sapiens
# Protocol: Human breast tumor cells (BT474) were cultured in RPMI (Mediatech […]), containing 10% FBS (JRH Biosciences 12176) and 1% penicillin-streptomycin (Invitrogen 15140). […] Cells were harvested using trypsin/EDTA (Invitrogen 25200), counted using a haemocytometer, and plated. […] Total ATP was measured (as a surrogate estimate of cell number) using CellTiter-Glo® reagent (Promega G7571). […] Percent inhibition of cell growth was calculated relative to DMSO vehicle-treated control wells. […]
recorded-endpoint: IC50

These recorded examples may help you get a feel for the data.
{"columns": ["compound", "observed-value"],
 "data": [
  ["CN1CCN(c2nc(-c3ccc(F)c(NS(=O)(=O)c4c(F)cccc4F)c3)c(-c3ccnc(Nc4ccc(N5CCOCC5)nc4)n3)s2)CC1 [Example 126]", "100 to 1000 nM"],
  ["O=S(=O)(Nc1cccc(-c2nc(N3CCCC3)sc2-c2ccnc(Nc3ccc(N4CCN(CCF)CC4)c(F)c3)n2)c1)c1c(F)cccc1F [Example 21]", "< 100 nM"]
]}

Now, please, on to the next compound.
What value of measured IC50 is listed for O=S(=O)(Nc1cc(-c2nc(N3CCCC3)sc2-c2ccnc(Nc3ccc(N4CCOCC4)nc3)n2)ccc1F)c1c(F)cccc1F [Example 26] ?
< 100 nM
